Each entry below carries its reported glycan array binding signal (z-score).
Molecular target: Fuc(a1-2)Gal6S(b1-4)Glc
Assay: glycan array binding signal (z-score within array); higher = stronger binding
Settings: glycan notation: IUPAC condensed, linker removed
Many of the other results were omitted from the sample, so the strongest signals are more common in it than they were.
Give your answer as a number; write no unit.

The cases that follow already have their glycan array binding signal (z-score) on record.
1) his-Lectin-24A (Drosophila melanogaster) (protein) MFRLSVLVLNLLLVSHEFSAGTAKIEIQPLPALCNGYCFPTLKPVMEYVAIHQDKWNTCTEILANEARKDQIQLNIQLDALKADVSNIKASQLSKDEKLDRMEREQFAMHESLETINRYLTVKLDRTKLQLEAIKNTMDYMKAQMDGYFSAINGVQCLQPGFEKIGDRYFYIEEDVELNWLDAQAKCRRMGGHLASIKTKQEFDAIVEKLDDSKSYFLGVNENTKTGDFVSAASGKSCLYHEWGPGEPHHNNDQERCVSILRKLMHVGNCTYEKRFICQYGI :: -0.34
2) LlpA (Arthrobacter sp) (protein) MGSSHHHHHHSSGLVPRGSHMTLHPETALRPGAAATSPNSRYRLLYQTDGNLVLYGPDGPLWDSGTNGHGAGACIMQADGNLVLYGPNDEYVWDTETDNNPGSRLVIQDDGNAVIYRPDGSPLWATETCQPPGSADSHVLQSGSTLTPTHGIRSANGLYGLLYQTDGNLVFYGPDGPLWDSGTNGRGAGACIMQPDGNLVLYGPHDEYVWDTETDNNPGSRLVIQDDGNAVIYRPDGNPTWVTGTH :: 0.733

Next binder, please.
Q. Note down glycan array binding signal (z-score) recorded for NKR-PIC (Mus musculus) (protein) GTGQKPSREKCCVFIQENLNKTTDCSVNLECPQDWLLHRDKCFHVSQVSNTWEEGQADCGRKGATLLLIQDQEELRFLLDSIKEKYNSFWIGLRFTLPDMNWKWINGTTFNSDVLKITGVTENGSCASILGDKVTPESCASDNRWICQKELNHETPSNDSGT
A. -0.317
